Exercise: for every item that follows, state its recorded MIC.
# System: Staphylococcus aureus sp. 1130
# ASSAY_NOTES: in vitro tube dilution test (MIC)
# Assay type: cell-based
# EXPERIMENTAL_SETUP: Staphylococcus aureus sp. 1130, tube dilution; read-out: MIC
// units = µg/mL; emit number, no label

Q: Sample CCn1cc(C#N)c([N+](=O)[O-])n1 — what was its MIC?
A: 100

Q: Which MIC is reported for this compound? CNc1nnc(-c2cn(C)nc2[N+](=O)[O-])s1
A: 50

Q: Endpoint output: MIC of NC(=O)c1cn(Cc2ccccc2)nc1[N+](=O)[O-] [Compound 18, 1-benzyl-3-nitro-4-pyrazolecarboxamide] . Value?
A: 6.25

* * *

# Test system: Pasteurella multocida
# ASSAY_NOTES: in vitro tube dilution test (MIC)
# Format: cell-based
Give measured MIC for each item. Keep answers brief.
Reply with just the number (in µg/mL).

Q: Reported MIC for Pasteurella multocida, given NC(=O)c1cn(C2C=CC(n3cc(C(N)=O)c([N+](=O)[O-])n3)C=C2)nc1[N+](=O)[O-] (stereo not drawn) [Compound 59] ?
A: 3.12

Q: Item NC(=O)c1cn(-c2ccc([N+](=O)[O-])cc2)nc1[N+](=O)[O-] [Compound 5] with Pasteurella multocida - MIC?
A: 3.12

Q: Quick check: MIC on Pasteurella multocida, item N#Cc1cn(-c2ccc([N+](=O)[O-])cc2)nc1[N+](=O)[O-] [Compound 92] ?
A: 0.78

Q: # get_value(readout= MIC, system= Pasteurella multocida) for N#Cc1cn(-c2ncc([N+](=O)[O-])s2)nc1[N+](=O)[O-] [Compound 68]
A: 12.5

Q: # get_value(readout= MIC, system= Pasteurella multocida) for NC(=O)c1cn(-c2ncc([N+](=O)[O-])s2)nc1[N+](=O)[O-] [Compound 95]
A: 3.12

* * *

# System: Pasteurella multocida
# ASSAY_NOTES: in vitro tube dilution test (MIC)
# Assay type: cell-based
# EXPERIMENTAL_SETUP: tube dilution, read-out: MIC
# From the text: Our compound, 1-(2-hydroxyethyl)-3-nitro-4-pyrazolecarboxamide, has been extensively tested in vitro to determine the range of microorganisms against which it is active. The table of data below reports the minimum inhibitory concentration (MIC) at which the compound is effective in controlling a variety of microorganisms in a standard tube dilution test system. The MIC is reported as micrograms of compound per milliliter. […]
Field: MIC. Provide a value for each of the molecules that follow.
Please state the number and follow it with the unit.

Q: For the molecule CC(C)n1cc(C(N)=O)c([N+](=O)[O-])n1 , what MIC is on record?
A: 50 µg/mL

Q: So what's the measured MIC for this one? NC(=O)c1cn(Cc2ccccc2)nc1[N+](=O)[O-] [Compound 18, 1-benzyl-3-nitro-4-pyrazolecarboxamide]
A: 12.5 µg/mL

Q: Report MIC for NC(=O)c1cn(CCCl)nc1[N+](=O)[O-] please.
A: 12.5 µg/mL

Q: Entry under review: C#CCn1cc(C#N)c([N+](=O)[O-])n1 . Reported MIC?
A: 12.5 µg/mL

Q: For the molecule NC(=O)c1cn(CCN2C(=O)c3ccccc3C2=O)nc1[N+](=O)[O-] , what MIC is on record?
A: 25 µg/mL

Q: What measured MIC goes with C=Cn1cc(C(N)=O)c([N+](=O)[O-])n1 [Compound 81, 3-nitro-1-vinyl-4-pyrazolecarboxamide] ?
A: 1.56 µg/mL

Q: # input molecule: N#CCCn1cc(C#N)c([N+](=O)[O-])n1 ; wanted: its MIC
A: 12.5 µg/mL

Q: Using the record for CCOC(Cn1cc(C(N)=O)c([N+](=O)[O-])n1)OCC , report its MIC.
A: 50 µg/mL

Q: Give the measured MIC of NC(=O)c1cn(CCBr)nc1[N+](=O)[O-] .
A: 12.5 µg/mL
